- Tested on: SW-620
- testMethodNotes: NCI tumour cell line growth inhibition, 48 h
Active and inactive are the calls of the source. Rule as the data show it: active = GI50 up to about 1.1 µM and inactive = higher.
The reply should be one of these categories: TRUE = active, FALSE = inactive

Known results for compounds:
C[C@@H]1CC[C@@]2(C)C(C(=O)O)=CCCC2[C@@]1(C)CC(=O)c1ccoc1 (some centres not stated) :: FALSE
C/C=C/C1=CC(=O)C(O)C1O (configuration not stated) :: FALSE
CN(C)P(=O)(/C(N)=N/Nc1ccc([N+](=O)[O-])cc1)N(C)C :: FALSE
COc1cc2c(c(OC)c1OC)-c1ccc(SC)c(=O)cc1[C@@H](NCc1ccc([N+](=O)[O-])cc1)CC2 :: TRUE

Per the records of this test, what outcome belongs to "O=c1[nH]nc(Cc2ccc(Cl)cc2)n1/N=C/c1ccc([N+](=O)[O-])o1" ?
FALSE

====

- Tested on: RXF 393
- testMethodNotes: NCI tumour cell line growth inhibition, 48 h
Calls of active or inactive are those of the source. No stated cut-off is given here; in the data, active = GI50 up to about 1.1 µM and inactive = higher. Peptide text beside a SMILES is read from it. * marks the point of attachment. Boc = CC(C)(C)OC(=O)*
Each record here notes measured GI50.

Illustrative cases are given below, each with its answer.
C[C@@](Br)(C(=O)O)[C@H](Br)C(=O)O :: > 100 µM (inactive)
Nc1ncnc2c1ncn2[C@H]1CC[C@@H](NO)C1 :: > 100 µM (inactive)
O=C(NC(CCCCN1C(=O)c2ccccc2C1=O)P(=O)(Oc1ccccc1)Oc1ccccc1)OCc1ccccc1 (centres undefined) :: > 100 µM (inactive)

Please report the recorded GI50 for "COc1cccc(CSCC(=O)O)c1" .
> 100 µM (inactive)

Same read-out for CCc1ccccc1NC(=O)C1=C(C)NC(C)=C(C(=O)Nc2c(CC)cccc2CC)C1c1ccc2c(c1)OCO2 (centres undefined) ?
12.4 µM (inactive)

Same for CC(NC(=O)OC(C)(C)C)C(=O)NC(Cc1ccccc1)C(=O)NCC(=O)O (stereo not drawn) (Boc-Ala-Phe-Gly-OH; configuration not given here)
> 100 µM (inactive)

====

GI50: recorded values
- System: HCT-116
- testMethodNotes: NCI tumour cell line growth inhibition, 48 h
The source made the active and inactive calls. No stated cut-off is given here; in the data, active = GI50 up to about 1.1 µM and inactive = higher.

The examples below pair each entry with its known result.
CCOC(=O)c1c(C)n(-c2ccc(C)cc2)c(=O)c2ccccc2c(=O)c2c(=O)ccc(=O)c1=2 :: 17.2 µM (inactive)
CNC(=O)OCC1=C(COC(=O)NC)CN(c2ccccc2)C1 :: > 100 µM (inactive)

Request - read-out GI50 | tested on HCT-116 | compound CC(=O)CCN1CC2CN=NC2(C#N)C1 (stereo unspecified)
34 µM (inactive)

Now this one: "OCCC/N=C1N=C(Cl)/C(=C\c2ccccc2)N\1"
> 100 µM (inactive)

Follow-up entry: "Nc1ncnc2c1ncn2[C@H]1CC[C@@H](NO)C1"
> 100 µM (inactive)

Would you kindly repeat that for CCCCCCCCCCCCCCCCOCC(CP(=O)([O-])OCC[n+]1ccccc1)OC (stereo unspecified) ?
9.66 µM (inactive)

====

- Tested on: LOX IMVI
- testMethodNotes: NCI tumour cell line growth inhibition, 48 h
Calls of active or inactive are those of the source. No stated cut-off is given here; in the data, active = GI50 up to about 1.1 µM and inactive = higher.
Answer with one of the outcomes TRUE = active, FALSE = inactive

O=c1[nH]nc(Cc2ccc(Cl)cc2)n1/N=C/c1ccc([N+](=O)[O-])o1 :: FALSE

Call for entry "CCN1C[C@]2(C)CC[C@H](OC)C34C1C([C@H](OC(C)=O)[C@@H]32)[C@@]1(OC)C[C@H](OC)[C@H]2C[C@@H]4[C@@H]1[C@H]2O" :
FALSE

Lookup CC12C=CC(=O)C=C1CCC1C3CCC(O)(C(=O)CO)C3(C)CC(O)C12F (configuration not stated)
FALSE

Param item: "Cn1c(=O)nc2n(CCO)ccnc-2c1=O"
FALSE

Record: "COC(=NC(C)C)NC(C)C"
FALSE

====

- Test system: Hs-578T
- testMethodNotes: NCI tumour cell line growth inhibition, 48 h
The source made the active and inactive calls. Cut-off read from the data, not from the text of the source: active = GI50 up to about 1.1 µM and inactive = higher.
reportedMetric: GI50

A selection of reference data follows.
CCOC(=O)/C=C\c1c(Cl)n(-c2ccccc2)c(=O)n(-c2ccccc2)c1=O :: 27.3 µM (inactive)
Cc1ccc(OCCn2cc(Nc3ccccc3)c(=O)n(CCOc3ccc(C)cc3)c2=O)cc1 :: 67.6 µM (inactive)
CC(C)(C)OC(=O)NC(CCCCNC(=O)OCc1ccccc1)C(=O)NC(CCCCNC(=O)OCc1ccccc1)C(=O)ON1C(=O)CCC1=O (stereo not given) :: > 100 µM (inactive)
C/C(=C\c1ccc(Cl)c(Cl)c1)[N+](=O)[O-] :: 3.24 µM (inactive)

Turning now to a further compound:
Item COc1cc2c3c(c1O)-c1c(ccc(OC)c1OC)CC3N(C)CC2 (stereo not given) has what recorded GI50?
> 100 µM (inactive)

====

- Tested on: XF498
- testMethodNotes: NCI tumour cell line growth inhibition, 48 h
Active and inactive are the calls of the source. Rule as the data show it: active = GI50 up to about 1.1 µM and inactive = higher.
reportedMetric: GI50

// known answers, use as guide
CC(C)=CC1(C)/C(=N\O)C(C)(CC(C)C)C(=O)N1O (stereo unspecified) :: 11.3 µM (inactive)
N#C/C(=C1/Sc2c(nc[nH]c2=O)N1c1ccccc1)c1nc2ccccc2[nH]1 :: > 100 µM (inactive)
CCCCOC(=O)C1C(c2ccc(Cl)cc2)NC(c2ccc(Cl)cc2)C(C(=O)OCCCC)S1(=O)=O (stereo unspecified) :: > 100 µM (inactive)
Nn1c(S)nnc1N/N=C1/C(=O)Nc2ccccc21 :: 37.9 µM (inactive)
C/C=C/C1=CC(=O)C(O)C1O (stereo unspecified) :: 18.5 µM (inactive)

Using the record for "COC(=O)c1cc2cc(OC)c(OC)cc2cc(C(=O)OC)c1=O" , report its GI50.
> 100 µM (inactive)

Okay, and "O=C1Nc2c(ccc(Cl)c2I)C1=O" ?
16 µM (inactive)

Entry "C=C(C)[C@@H]1CC[C@]2(C)CC[C@]3(C)[C@H](CC[C@@H]4[C@@]5(C)CC[C@H](O)C(C)(C)[C@@H]5CC[C@]43C)[C@@H]12" please
> 100 µM (inactive)

Next compound: "COc1ccc(C(=O)/C=C/c2ccc(OCC(=O)N3CCN(c4ccccc4)CC3)cc2)cc1"
35.9 µM (inactive)

====

- Tested on: DMS-114
- testMethodNotes: NCI tumour cell line growth inhibition, 48 h
Calls of active or inactive are those of the source. Rule as the data show it: active = GI50 up to about 1.1 µM and inactive = higher.
reportedMetric: GI50

COc1nc2c(c(O)c(C)c(=O)n2OC2OC(COC(C)=O)C(OC(C)=O)C(OC(C)=O)C2OC(C)=O)c(=O)n1C (stereo not given) :: > 100 µM (inactive)
O=C(N/C(=C\c1cc(Cl)ccc1Cl)c1nc2cc(Cl)ccc2[nH]1)c1ccccc1 :: 15.4 µM (inactive)
C=CC(C)C1(CCCOCc2ccccc2)C(=S)N2CCC3(CC24CCCC14)OCCO3 (stereo not given) :: 4.97 µM (inactive)
CCOC(=O)/C(=C/c1cccc(C#N)c1)N(CC)CC :: > 100 µM (inactive)
CC12C=CC(=O)C=C1CCC1C3CCC(O)(C(=O)CO)C3(C)CC(O)C12F (stereo not given) :: > 100 µM (inactive)

Kindly consider the entry below.
Entry "CC(=O)NC1=C(N)C(=O)c2ccccc2C1=O" : reported GI50 = ?
14.8 µM (inactive)

====

- Test system: CAKI-1
- testMethodNotes: NCI tumour cell line growth inhibition, 48 h
Activity calls are given as the source filed them. Rule as the data show it: active = GI50 up to about 1.1 µM and inactive = higher.
Could you please pick one outcome from this set? label 1 for active, label 0 for inactive

Field: example entries. Status: answers known.
CC(=O)Nc1ccc(NC(=O)CC(=O)Nc2ccc(NC(C)=O)cc2)cc1 :: label 0
C[C@@](Br)(C(=O)O)[C@H](Br)C(=O)O :: label 0

What classification did "Cc1cc(=O)n(-c2ccccc2C)c(C)n1" end up with in this test?
label 0

Same read-out for "O=C(N/N=C/c1ccccc1)c1c(F)c(F)c(F)c(F)c1F" ?
label 0

What about this compound? "COC(=O)c1cc2cc(OC)c(OC)cc2cc(C(=O)OC)c1=O"
label 0

Okay, and NNC(=O)N/N=C1\C(=O)N(c2ccc(Cl)c(Cl)c2)C(=O)C(=O)C1c1nc2ccccc2s1 (stereo not given) ?
label 0

Lookup "COc1ccc(C(=O)/C=C/c2ccc(OCC(=O)N3CCN(c4ccccc4)CC3)cc2)cc1"
label 0

====

- Tested on: OVCAR-5
- testMethodNotes: NCI tumour cell line growth inhibition, 48 h
Calls of active or inactive are those of the source. Cut-off read from the data, not from the text of the source: active = GI50 up to about 1.1 µM and inactive = higher.
Valid outcomes are listed here; reply with one: active, inactive

These recorded examples may help you get a feel for the data.
Cc1cc(Cl)ccc1NC(=O)C1C(=O)N(c2ccc(Cl)cc2C)C(=O)/C1=N\NC(N)=S (stereo not drawn) :: inactive
Cc1nc2[nH]ccn2c(=O)c1CCCl :: inactive
CCCCOC(=O)C1C(c2ccc(Cl)cc2)NC(c2ccc(Cl)cc2)C(C(=O)OCCCC)S1(=O)=O (stereo not drawn) :: inactive

Please turn your attention to the following entry.
Could you kindly confirm the outcome this assay logged for N#C/C(=C1\OC(=N)C(c2ccc(Cl)cc2Cl)C1=O)c1ccc(Cl)cc1Cl (stereo not drawn) ?
inactive
